- Tested on: Vero E6 infected with SARS-CoV-2
- Assay details: SARS-CoV-2 infection rate relative to infected DMSO; higher = more infection, active = 60 or less
- Measurement context: 24 h

{"Compound": "CC(C)(C(=O)O)c1ccc(C(O)CCCN2CCC(C(O)(c3ccccc3)c3ccccc3)CC2)cc1 (configuration not stated) [fexofenadine] (10 µM)", "SARS-CoV-2 infection rate": "122% (inactive)"}
{"Compound": "COc1ccc(COc2ccc(Cc3cnc(N)nc3N)cc2OC)cc1 (10 µM)", "SARS-CoV-2 infection rate": "112% (inactive)"}
{"Compound": "Nc1ncnc2c1ncn2[C@@H]1O[C@H](C[C@@H](N)CC[C@H](N)C(=O)O)[C@@H](O)[C@H]1O [sinefungin] (10 µM)", "SARS-CoV-2 infection rate": "109% (inactive)"}
{"Compound": "Cn1c2cc([S+](C)[O-])sc2c2cnn(Cc3cccc(N)c3)c(=O)c21 (configuration not stated) (10 µM)", "SARS-CoV-2 infection rate": "107% (inactive)"}
{"Compound": "N[C@@H](CS)C(=O)O [L-cysteine] (10 µM)", "SARS-CoV-2 infection rate": "94% (inactive)"}
{"Compound": "C[C@]12CC[C@@H]3c4ccc(O)cc4CC[C@H]3[C@@H]1CC[C@@H]2O [estradiol] (10 µM)", "SARS-CoV-2 infection rate": "116% (inactive)"}
{"Compound": "CC(=O)Nc1ccc(S(=O)(=O)Nc2ccc([N+](=O)[O-])cc2)cc1 [sulfanitran] (10 µM)", "SARS-CoV-2 infection rate": "108% (inactive)"}
{"Compound": "Nc1ncnc2c1ncn2[C@@H]1O[C@H](CO)[C@@H](O)[C@H]1O [adenosine] (10 µM)", "SARS-CoV-2 infection rate": "109% (inactive)"}
{"Compound": "CC[n+]1c(-c2ccccc2)c2cc(N)ccc2c2ccc(N)cc21 [homidium] (10 µM)", "SARS-CoV-2 infection rate": "99.5% (inactive)"}
{"Compound": "O=C(c1ccc(OCCN2CCCCC2)cc1)c1c(-c2ccc(O)cc2)sc2cc(O)ccc12 [raloxifene] (0.833333 µM)", "SARS-CoV-2 infection rate": "101% (inactive)"}
{"Compound": "Cc1cc(/C=C2\\SC(=O)N(c3ccccc3)C2=O)c(C)n1-c1cccnc1 (10 µM)", "SARS-CoV-2 infection rate": "102% (inactive)"}
{"Compound": "O=C(O)c1nn(Cc2ccc(Cl)cc2Cl)c2ccccc12 [lonidamine] (10 µM)", "SARS-CoV-2 infection rate": "110% (inactive)"}
{"Compound": "CC[N+](CC)(CC)CCOc1cccc(OCC[N+](CC)(CC)CC)c1OCC[N+](CC)(CC)CC [gallamine-triethiodide] (10 µM)", "SARS-CoV-2 infection rate": "112% (inactive)"}
{"Compound": "CN(C)Cc1ccc(S(=O)(=O)n2ccc(/C=C/C(=O)NO)c2)cc1 [resminostat] (0.833333 µM)", "SARS-CoV-2 infection rate": "116% (inactive)"}
{"Compound": "CCCN(CCC)C(=O)C(CCC(=O)O)NC(=O)c1ccccc1 (configuration not stated) [proglumide] (10 µM)", "SARS-CoV-2 infection rate": "107% (inactive)"}
{"Compound": "Cc1cccc(C)c1NC(=O)[C@@H](C)N [tocainide] (10 µM)", "SARS-CoV-2 infection rate": "109% (inactive)"}
{"Compound": "Cc1cc(C(C)(C)CC(C)(C)C)ccc1OCCOCC[N+](C)(C)Cc1ccccc1 [methylbenzethonium-chloride] (10 µM)", "SARS-CoV-2 infection rate": "101% (inactive)"}
